# Test system: MDA-MB-435 melanoma
# measurement_notes: NCI-60 one-dose screen, 48 h
# condition_label: 10 µM unless noted
About 83,000 compounds went through this panel and 20% of them were active in at least one assay; those are over-represented in the sample as a whole. The source made the active and inactive calls. Rule for the calls: active = growth percent below 10; inactive = the rest.
Respond using exactly one of the listed classes: active, inactive

Dear all, I need the recorded test outcome for CC1(C)CC[C@]23CC[C@]4(C)[C@H](CC[C@@H]5[C@@]6(C)C/C(=C/c7ccncc7)C(=O)C(C)(C)[C@@H]6CC[C@]54C)[C@H]2[C@H]1OC3=O , thank you.
inactive

Dear all, I need the recorded test outcome for C/C=C/C1OC23CCCCC2C(C#N)(C(=N)O3)C1(C#N)C#N (centres undefined) , thank you.
inactive

Dear all, I need the recorded test outcome for CCOC(=O)C(C(C)=O)c1nc2sc3cc(Cl)c(Cl)cc3n2c(=O)c1C#N (centres undefined) , thank you.
inactive

Dear all, I need the recorded test outcome for Cc1nc(Cl)c2c(n1)N(C)c1ccc(Cl)cc1C(C)C2 (centres undefined) , thank you.
inactive

Dear all, I need the recorded test outcome for CS(=O)(=O)c1cccnn1 , thank you.
inactive

Dear all, I need the recorded test outcome for c1ccc(-c2n[nH]c(-c3ccccn3)n2)nc1 , thank you.
inactive

Dear all, I need the recorded test outcome for O=C(O)c1ccccc1C(F)(F)F , thank you.
inactive

Dear all, I need the recorded test outcome for Cc1ccc(Cn2c(O)c(N=NC(=O)c3ccc(S(N)(=O)=O)cc3)c3ccccc32)cc1 , thank you.
inactive

Dear all, I need the recorded test outcome for C=C(C)[C@@H]1CC[C@]2(C)[C@H](C(=O)C=C3[C@@H]4C[C@](C)(C(=O)N5CCN(C)CC5)CC[C@]4(C)CC[C@]32C)[C@@]1(C)CCC#N , thank you.
active
